- Test system: PPARg:RXRa 270nM:90nM, anti-RXR (NR concentration 270 nM, RXRa partner concentration 90 nM)
- Assay Text: PBM binding z-score (relative to random genomic background probes); higher = stronger binding; sequences stand for … in GC…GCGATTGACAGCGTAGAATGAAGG
Decide using PBM binding z-score: a value greater than or equal to 1 is yes (1), a smaller one is no (0).

1. TAGCCTAGGTCATGCGGGCCACTATAGTGTCGGC; yes (1)
2. ACAGACAGGTGATGAAAGTAACTCAGGCTATCAT; no (0)
3. ACTAGCAGGCCAATTTTGGGTCACTCAAACAAAG; no (0)
4. CCTATTATTTGACCATAAGGGCAACCGAAGCTCG; no (0)
5. CTAACGAGGGCATGAGTTGATAGCAAATGCCGAT; yes (1)
6. ATCGAAAGGCCGACGAGGTGAGTATACACCGTTT; no (0)
7. GCTGACAGGTGAAACGCAGGTAACTCAGGGTGGC; no (0)
8. TCATATAGGTAAACAGGTGAAGGTCCGTAAGTTA; yes (1)
9. CGTCAAATTTCAAGGTAACGTAACAGAAAGCAGC; no (0)
10. CCTGCTAGGTCAATGGTCAGATAAAGCAGCTCGC; yes (1)
11. CTCGTAAGGTCGGTTGAGGTGAGTATACGGATAA; no (0)
12. CGAACTAGGTTATTGACAGGACAGTGAATAGTAA; yes (1)
13. AGAATGAGGTGACCAAAGATCAGGGAAACGCTTG; yes (1)
14. CCGACTGAGGCAGAAAGGTTACCATACCATCCGG; yes (1)
15. TCATATAGGTAAAAGGTGAGAGTCGGTGTGGTAA; yes (1)
16. CCAACTAGGTCAAGGACAGTGAATCTCCGCACGC; yes (1)
17. TCTGCTAGGTTAACGATGGTCAGCTAATCTGCTA; no (0)
18. ACTCGGAGGACAAAGGTCAGAGCAACGCCAGTGA; yes (1)
19. TCTGCTAGGTAAGTTGGTCAGCTAACGAGCTGCC; no (0)
20. CGAACGCGGGCATGAGTTGATAGCAAATGCCGAT; no (0)
21. CGTCGAAGTTCAAGGTAACGTAACAGAAAGCAGC; yes (1)
22. CCGACTGGGACAAAGGTTACCATACTCAGTACGA; yes (1)
23. CCTCCTAGGTCAATGGTCAGCTAAAGCAGCTCGC; yes (1)
24. GCTGCTAGGTCAACTGATGTTCAGCTAAAGCTCG; yes (1)
25. CCTAGTTGGTAAGGAGGTCACACACCGGATATGA; yes (1)
